Target: Olfactory marker protein (OMP) (Mus musculus)
Construct: Rluc-OMP fusion (Rluc upstream of mouse OMP, NM_011010), from HEK293T lysate
Sequence (Q64288 2-163): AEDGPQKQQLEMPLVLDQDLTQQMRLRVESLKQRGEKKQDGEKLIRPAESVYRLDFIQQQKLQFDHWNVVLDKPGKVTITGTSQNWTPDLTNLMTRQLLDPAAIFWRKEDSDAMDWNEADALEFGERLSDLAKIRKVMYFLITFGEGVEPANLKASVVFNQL
Experiment: direct BRET binding, Rluc-OMP to fluorescent TNP-ATP, Rluc-alone background subtracted
Type: biochemical
readout: EC50 (µM)
Answers are plain numbers, in µM.

[ask] What value of measured EC50 is listed for Nc1ncnc2c1ncn2[C@@H]1O[C@H](COP(=O)(O)OP(=O)(O)OP(=O)(O)O)[C@H]2OC3(O[C@H]21)C([N+](=O)[O-])=CC(=[N+]([O-])[O-])C=C3[N+](=O)[O-] (stereo partly shown) ?
[reply] 13

---

target: Olfactory marker protein (OMP) (Mus musculus, UniProt Q64288); construct: Rluc-OMP fusion (Rluc upstream of mouse OMP, NM_011010), from HEK293T lysate; test: BRET competition against […] 8NBD-cAMP (U-shaped); type: biochemical
readout: EC50

[ask] What value of measured EC50 is listed for Nc1ncnc2c1ncn2[C@@H]1O[C@H](COP(=O)(O)OP(=O)(O)OP(=O)(O)O)[C@@H](O)[C@H]1O ?
[reply] 1000 nM
